TEST NAME: qHTS assay to identify small molecule antagonists of the constitutive androstane receptor (CAR) signaling pathway - cell viability counter screen (AID 1224837); also: nearly all actives have a fitted effect of over 45% in size
COND: HepG2-CYP2B6-hCAR viability, CellTiter-Fluor, 23 h, co-treated with 50 nM CITCO; series mostly up to 92.4 µM
Inconclusive results are not listed. Active and inactive are the calls of the source. Calls follow the shape of the dose curve; as a rule, active = well fitted cell-killing curve with a large enough effect in the repeat runs; inconclusive = weak or mixed curves, or effect the other way; inactive = flat fitted curve, though single readings scatter.
Thanks in advance; please answer with one of these: active, inactive

Illustrative cases are given below, each with its answer.
Assay outcome for `Nc1nnc(-c2ccc([N+](=O)[O-])o2)o1` : what was it?
active

Request: CCCCCCCCC(CCCCCC)C(=O)O (stereo not given)
inactive

What would you report for `C[C@@H]1CN(CCCn2c3ccccc3c3ccccc32)C[C@H](C)N1` ?
active

Again, but for `Cc1cscn1`
inactive

Here is the next molecule: `COc1ccccc1Oc1c(NS(=O)(=O)c2ccc(C(C)(C)C)cc2)nc(-c2ncccn2)nc1OCCO`
inactive

Next: `O=Cc1c2ccccc2c(Cl)c2ccccc12`
inactive

Repeat for the following molecule: `N#CCc1ccc(Cl)cc1Cl`
inactive

Now consider `CCC(C)(C)OC` .
inactive

c1cc(N(CC2CO2)CC2CO2)ccc1Cc1ccc(N(CC2CO2)CC2CO2)cc1 (stereo not given) , same question.
active

Let us now turn to `CC(=O)OCC(=O)NCCCOc1cccc(CN2CCCCC2)c1`
inactive

More entries:
For this molecule, state the assay outcome: `O[C@@H]1CO[C@H]2[C@@H]1OC[C@@H]2O`
inactive

Now the molecule `CCOC(=O)c1ccc(O)c(O)c1`
inactive

Query `CCOC(=O)c1ccc(C#Cc2ccc3c(c2)C(C)(C)CCS3)nc1` next
inactive

Try this molecule too: `Cc1cc(O)c(C)c(C)c1O`
inactive

Moving on to `O=C(Cn1ccnc1[N+](=O)[O-])NCCO`
inactive

Try this molecule too: `Cc1cc(O)ccc1O`
inactive

Entry to check: `CCCCCCCCCCC(=O)O`
inactive

Likewise for CC1CC(OC(=O)C(O)c2ccccc2)CC(C)(C)N1C (stereo not given) ?
inactive

Same question for `Nc1ccc(N=Nc2ccccc2)c(N)c1` please.
active

Would you mind doing `C=Cc1ccc(S(=O)(=O)O)cc1` as well?
inactive
